experiment: P. aeruginosa biofilm formation inhibitors, primary screen, strain PAO1, LB-PBS medium, absorbance 600 nm (AID 1176); also: test concentration not given here; conditions: P. aeruginosa PAO1 growth/biofilm, A600, 12 h; higher = more signal
z-score overview
measurement_label: z-score

- mol_smiles: "C=CCN1C(=O)[C@@]2(O[C@@H](CCO)[C@H]([Si](C)(C)c3ccc(OC)cc3)[C@H]2C)c2cc(N3C(=O)c4ccccc4Oc4ccccc43)ccc21"
  measurement_label: "z-score"
  reported_result: 1.95
- mol_smiles: "C=C(CCCC)C(=O)CC[C@@H](OC(=O)c1cccnc1)c1ccccc1OCCO"
  measurement_label: "z-score"
  reported_result: -0.153
- mol_smiles: "C=C(/C(=C/C[C@@H](OC(=O)c1ccncc1)c1ccc(OCCO)cc1)c1cc(C(=O)OC)ccc1OC)C(C)C"
  measurement_label: "z-score"
  reported_result: 0.224
- mol_smiles: "CC(C)(C)OC(=O)CC[C@@]1(C(=O)O)N=C(c2ccc(OCCCO)cc2)O[C@@H]1c1ccccc1CN=[N+]=[N-]"
  measurement_label: "z-score"
  reported_result: -0.0988

====

tested on: Inhibin beta A chain (activin A); assay: INHBA (activin A) binders on microarrays, primary screen, biochemical, small-molecule microarray, 635 nm fluorescence scan (AID 1107); conditions: small-molecule microarray binding, higher = more signal;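 also: mouse activin A protein probed at 4.33 µg/mL on printed slides; score merges bound-protein fluorescence near 667 nm with spot signal-to-noise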

- compound: "COC(=O)c1c(CC[C@@H](CO)NC(=O)N[C@H](Cn2cc(-c3ccccc3C)nn2)C(C)C)oc(C(C)=O)c1C(=O)OC"
  composite z-score: -0.252
- compound: "C[C@]1(C(=O)NC2CC2)c2ccccc2C(=O)N(Cc2ccc(OC(F)(F)F)cc2)[C@H]1c1ccc(CO)cc1"
  composite z-score: 0.781
- compound: "COc1ccc(C(O)C2C=CC3C(=O)N(c4ccccc4)C(=O)C3N2Nc2ccc(C#N)cc2)c2ccccc12 (stereo unspecified)"
  composite z-score: 0.675
- compound: "C=C(/C(=C/C[C@@H](OC(=O)c1ccncc1)c1ccccc1OCCO)c1cc(C(=O)OC)ccc1OC)C(C)C"
  composite z-score: 0.787
- compound: "Cc1ccc(S[C@]2(C(=O)NCC(F)(F)F)CC(=O)N(Cc3ccccc3)[C@@H]2c2ccc(CO)cc2)cc1"
  composite z-score: -0.0219
- compound: "CON(C)C(=O)C=C1C[C@@H](c2cccc(Cl)c2)O[C@@H](c2cccc(Cl)c2)O1"
  composite z-score: 0.9
- compound: "CN1C(=O)C2C=CC(C(O)Cc3ccccc3)N(N(c3ccccc3)c3ccccc3)C2C1=O (stereo unspecified)"
  composite z-score: 0.864
- compound: "C[C@H]1C2=C3C(CC[C@H]4C(OCc5ccc(F)cc5C(F)(F)F)OC[C@](C)([C@@H]34)N(C(=O)OC(C)(C)C)C2)C2COC(=O)OCC21 (stereo partly specified)"
  composite z-score: 0.572
- compound: "C=CC1c2cc(O)c(OC)cc2CCN1Cc1sc2ccccc2c1Cl (stereo unspecified)"
  composite z-score: 1.55
- compound: "C=C(C(=O)CC[C@H](OC(=O)c1cccnc1)c1cccc(OCCO)c1)C(C)C"
  composite z-score: 1.16
- compound: "NC(N)=NCc1cn(CCc2c[nH]c3ccccc23)nn1"
  composite z-score: 0.307
- compound: "[N-]=[N+]=NCc1ccccc1[C@H]1OC(c2ccc(OCCCO)cc2)=N[C@@]1(CCS(=O)(=O)c1ccccc1)C(N)=O"
  composite z-score: 1.29
- compound: "C=C[C@H](COC(C)=O)NS(=O)(=O)c1ccc(Br)cc1"
  composite z-score: 0.294
- compound: "CC(C)c1ccc(NN2C(C(O)c3ccco3)C=CC3C(=O)N(c4ccccc4)C(=O)C32)cc1 (stereo unspecified)"
  composite z-score: 1.14
- compound: "C=CCOC(=O)[C@@H]1[C@H]2C(=O)O[C@H](c3ccccc3)[C@H](c3ccccc3)N2[C@H](c2ccc(OCCOC(=O)[C@H]3C[C@H]4C(=O)N[C@@H](CC(C)C)C(=O)N4[C@H]3c3ccc(O)cc3)cc2)[C@@]12C(=O)Nc1ccc(I)cc12"
  composite z-score: 0.463
- compound: "O=C(O)[C@H]1C[C@H]2C(=O)N3CCC[C@H]3C(=O)N2[C@H]1c1cccc(OCCO)c1"
  composite z-score: -0.0254

Reference source for all entries: PubChem BioAssay
